Listed here: items and their measured pIC50.
Tested on: 186277-243-T-J2-PDC complex spheroid viability;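 also: spheroids exposed to drugs for 7 days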
Test: Anticancer human tumor 186277-243-T-J2-PDC patient-derived colon adenocarcinoma cell line growth inhibition [GQUAD]
Conditions: curve of first compound; second compound 0.1 µM
pIC50: −log10 of the molar value.

Field: example entries. Status: answers known.
{"columns": ["compound", "pIC50"],
 "data": [
  ["O=C(c1cc(Cc2n[nH]c(=O)c3ccccc23)ccc1F)N1CCN(C(=O)C2CC2)CC1 + CN(C)c1ccc(Nc2c3ccc(NC(=O)CCN4CCCC4)cc3nc3cc(NC(=O)CCN4CCCC4)ccc23)cc1", "< 5.00"],
  ["Cn1ncnc1[C@H]1c2n[nH]c(=O)c3cc(F)cc(c23)N[C@@H]1c1ccc(F)cc1 + CN(C)c1ccc(Nc2c3ccc(NC(=O)CCN4CCCC4)cc3nc3cc(NC(=O)CCN4CCCC4)ccc23)cc1", "< 6.50"]
]}

Prompt: Entry C#Cc1c(F)ccc2cc(O)cc(-c3ncc4c(N5CC6CCC(C5)N6)nc(OCC56CCCN5CC(F)C6)nc4c3F)c12 (configuration not stated) + Cc1cnc(CNC(=O)c2c(=O)c3ccc(N4CCCN(C)CC4)nc3n3c2sc2ccccc23)cn1 : reported pIC50 = ?
Response: > 7.50

Prompt: Entry Nc1ccn(C2OC(CO)C(O)C2(F)F)c(=O)n1 (configuration not stated) + CN(C)c1ccc(Nc2c3ccc(NC(=O)CCN4CCCC4)cc3nc3cc(NC(=O)CCN4CCCC4)ccc23)cc1 : reported pIC50 = ?
Response: > 7.50
